System: elk sperm
Experiment: Post thaw DNA fragmentation of elk sperm (Example 3)
Type: cell-based
Conditions: 0 HR; unit assumed
endpoint label: Post Thaw DNA fragmentation Elk, Pre-sort
Give your result as the value with the unit written after it.

Q. # input compound: `O=S(=O)([O-])c1ccc(N=Nc2c(O)ccc3cc(S(=O)(=O)[O-])ccc23)cc1.[Na+].[Na+]` ; wanted: its Post Thaw DNA fragmentation Elk, Pre-sort
A. 2.3%

====

Provide the recorded Height of Peak/Height of Valley for the entries that follow.
Test system: X- and Y-chromosome bearing bovine sperm stained with Hoechst 33342
Experiment: Split quality: height of peak divided by height of valley (PV), flow cytometry of stained bovine sperm
Type: cell-based
Details: Ex 5; dye 62.5 μM; Hoechst 12 μL/2 mL
Enter the number alone.

Q. Request body: readout Height of Peak/Height of Valley, system X- and Y-chromosome bearing bovine sperm stained with Hoechst 33342, query `O=C([O-])C1=NN(c2ccc(S(=O)(=O)[O-])cc2)C(=O)/C1=N/Nc1ccc(S(=O)(=O)[O-])cc1.[Na+].[Na+].[Na+]` . Return the value.
A. 1.60

Q. Request body: readout Height of Peak/Height of Valley, system X- and Y-chromosome bearing bovine sperm stained with Hoechst 33342, query `O=S(=O)([O-])c1ccc(N=Nc2c(O)ccc3cc(S(=O)(=O)[O-])ccc23)cc1.[Na+].[Na+]` . Return the value.
A. 1.70

Q. Request body: readout Height of Peak/Height of Valley, system X- and Y-chromosome bearing bovine sperm stained with Hoechst 33342, query `O=S1(=O)OC(c2ccc(O)cc2)(c2ccc(O)cc2)c2ccccc21` . Return the value.
A. 1.62

Q. Request body: readout Height of Peak/Height of Valley, system X- and Y-chromosome bearing bovine sperm stained with Hoechst 33342, query COc1cc(S(=O)(=O)O)c(C)cc1N=Nc1c(O)ccc2cc(S(=O)(=O)O)ccc12 [Red 40, reference compound] . Return the value.
A. 1.65
